pIC50 by entry:
TESTED_TARGET: endogenous CETP from serum (Homo sapiens)
Construct: yielding a concentration of approximately 15 nM endogenous CETP in the assay; from tissue; host or cells: human serum
Sequence (P11597 18-493): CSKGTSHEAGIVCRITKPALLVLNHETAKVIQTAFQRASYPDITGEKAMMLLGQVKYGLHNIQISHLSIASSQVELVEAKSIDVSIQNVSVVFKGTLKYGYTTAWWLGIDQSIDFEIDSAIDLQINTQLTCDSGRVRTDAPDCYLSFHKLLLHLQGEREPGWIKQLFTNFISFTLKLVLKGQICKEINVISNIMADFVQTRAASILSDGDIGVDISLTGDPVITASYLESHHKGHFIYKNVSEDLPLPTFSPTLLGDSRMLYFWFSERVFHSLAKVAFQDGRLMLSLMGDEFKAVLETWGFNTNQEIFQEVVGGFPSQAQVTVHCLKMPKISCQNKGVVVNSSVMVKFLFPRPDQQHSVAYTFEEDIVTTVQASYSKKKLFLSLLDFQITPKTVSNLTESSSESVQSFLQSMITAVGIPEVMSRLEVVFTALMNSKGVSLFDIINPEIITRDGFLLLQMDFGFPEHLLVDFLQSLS
ASSAY_METHOD_TEXT: RTA assay of CETP-catalyzed CE and TG transfer in 95% human serum (95% RTA)
Assay type: biochemical
REPORTED_CONDITIONS: RTA assay in 95% human serum; read-out: IC50 RTA (95% HS)
pIC50: −log10 of the molar value.

{"columns": ["ENTRY_SMILES", "pIC50"],
 "data": [
  ["COc1ccc(-c2ccc(C(=O)O)cc2C)cc1-c1cnc(C(F)(F)F)cc1[C@H]1CC[C@H]2C1=NO[C@H]2c1cc(C(F)(F)F)cc(C(F)(F)F)c1", 5.00],
  ["COc1ncc(-c2ccc(C(=O)O)cc2C)cc1-c1ccc(C(F)(F)F)cc1[C@@H]1CC[C@@H]2C1=NO[C@@H]2c1cc(C(F)(F)F)cc(C(F)(F)F)c1", 7.15],
  ["COc1ncc(-c2ccc(C(=O)O)cc2C)cc1-c1ccc(C(F)(F)F)cc1[C@H]1CC[C@H]2C1=NO[C@H]2c1cc(C(F)(F)F)cc(C(F)(F)F)c1", 5.00],
  ["COc1ccc(-c2ccc(C(=O)O)cc2C)cc1-c1cnc(C(F)(F)F)cc1[C@@H]1CC[C@@H]2C1=NO[C@@H]2c1cc(C(F)(F)F)cc(C(F)(F)F)c1", 5.80]
]}

====

TESTED_TARGET: endogenous CETP from serum (Homo sapiens)
Construct: yielding a concentration of approximately 15 nM endogenous CETP in the assay; from tissue; host or cells: human serum
Sequence (P11597 18-493): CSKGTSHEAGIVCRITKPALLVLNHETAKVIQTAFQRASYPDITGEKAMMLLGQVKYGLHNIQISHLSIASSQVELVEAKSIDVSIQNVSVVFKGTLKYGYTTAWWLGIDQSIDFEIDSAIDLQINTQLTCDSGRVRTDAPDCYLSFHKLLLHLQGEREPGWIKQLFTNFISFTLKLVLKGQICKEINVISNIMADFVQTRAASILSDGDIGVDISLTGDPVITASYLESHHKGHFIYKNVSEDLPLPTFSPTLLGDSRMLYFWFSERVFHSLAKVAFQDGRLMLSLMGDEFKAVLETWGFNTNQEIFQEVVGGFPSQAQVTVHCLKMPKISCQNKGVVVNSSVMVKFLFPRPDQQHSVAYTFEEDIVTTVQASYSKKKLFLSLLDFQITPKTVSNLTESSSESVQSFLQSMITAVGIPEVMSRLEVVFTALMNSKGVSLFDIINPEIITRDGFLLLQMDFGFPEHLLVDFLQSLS
ASSAY_METHOD_TEXT: RTA assay of CETP-catalyzed CE and TG transfer in 95% human serum (95% RTA)
Assay type: biochemical
REPORTED_CONDITIONS: RTA assay in 95% human serum; read-out: IC50 (nM) RTA with 95% HS
# strict inequality: IC50 < 100 nM yields yes, everything else yields no

{"columns": ["ENTRY_SMILES", "QUALITATIVE_LABEL"],
 "data": [
  ["COc1ccc(-c2ccc(C(=O)O)cc2C)cc1-c1ccc(C(F)(F)F)cc1[C@@H]1CC[C@@H]2C1=NO[C@@H]2c1cc(F)cc(C(F)(F)F)c1", "yes"],
  ["COc1ccc(-c2ccc(C(=O)O)cc2C)cc1-c1ccc(C(F)(F)F)cc1[C@@H]1CC[C@@H]2C1=NO[C@@H]2c1cc(C(F)(F)F)cc(C(F)(F)F)c1", "no"],
  ["COc1ncc(-c2ccc(C(=O)O)cc2C)cc1-c1ccc(C(F)(F)F)cc1[C@@H]1CC[C@@H]2C1=NO[C@@H]2c1cc(F)cc(C(F)(F)F)c1", "yes"],
  ["COc1ncc(-c2ccc(C(=O)O)cc2C)cc1-c1ccc(C(F)(F)F)nc1[C@@H]1CC[C@@H]2C1=NO[C@@H]2c1cc(C(F)(F)F)cc(C(F)(F)F)c1", "no"],
  ["COc1ccc([C@H]2CC[C@H](C(=O)O)CC2)cc1-c1ccc(C(F)(F)F)cc1[C@@H]1CC[C@@H]2C1=NO[C@@H]2c1cc(C(F)(F)F)cc(C(F)(F)F)c1", "no"],
  ["COc1ccc(CCC(=O)O)cc1-c1ccc(C(F)(F)F)cc1[C@@H]1CC[C@@H]2C1=NO[C@@H]2c1cc(C(F)(F)F)cc(C(F)(F)F)c1", "no"]
]}
